- Measured on: KRAS G12C::SOS1 (Homo sapiens)
- Construct: purchased CISBIO 64KRASG12PEH
- Assay comment: KRAS G12C::SOS1 protein-protein interaction (PPI) inhibition assay (HTRF)
- Format: binding
- Setup conditions: 8 concentrations from 3 µM, three replicates; read-out: KRAS G12C::SOS1 PPI
Value kind: IC50

Previously resolved entries follow.
CCc1cc(C(=O)N[C@H](C)c2cccc(C(F)(F)CO)c2F)nn(-c2cncc(-c3cnnn3C3CC3)c2)c1=O [Example 1-42]; < 50 nM
CCc1cc(C(=O)N[C@H](C)c2cccc(C(F)(F)CO)c2F)nn(-c2cncc(-c3cnnn3C(C)C)c2)c1=O [Example 1-41]; < 50 nM
C[C@@H](NC(=O)c1ccc(=O)n(-c2cncc(-c3cnnn3C3CC3)c2)n1)c1cccc(C(F)(F)F)c1F [Example 1-50]; < 50 nM
CCc1cc(C(=O)N[C@H](C)c2cccc(C(F)(F)F)c2F)nn(-c2cncc(-c3cnnn3C)c2)c1=O [Example 1-66]; < 50 nM
C[C@@H](NC(=O)c1ccc(=O)n(-c2cncc(-c3cnnn3C3CC3)c2)n1)c1cccc(C(F)F)c1F [Example 1-51]; 50 to 150 nM

Then this compound:
For KRAS G12C::SOS1 (Homo sapiens), provide IC50 of C[C@@H](O)c1cc(C(=O)N[C@H](C)c2cccc(C(F)(F)F)c2F)nn(-c2cncc(-c3cnnn3C)c2)c1=O (single isomer, unassigned) [Example 9] please. 50 to 150 nM

* * *

- Measured on: SOS1 (Homo sapiens, UniProt Q07889)
- Construct: HIS-SOS1cat (160 nM; Cytoskeleton, US); His (N); purchased Cytoskeleton
- Assay comment: SOS-catalyzed nucleotide exchange assay (HTRF, SOS1-mediated GTP loading of KRAS G12D)
- Format: biochemical
- Setup conditions: GST-KRAS G12D, HIS-SOS1cat, compound 128 pM to 10 µM; read-out: SOS-catalyzed nucleotide exchange assay
Value kind: IC50

Recorded results for 3 molecules are shown here.
C[C@@H](NC(=O)c1ccc(=O)n(-c2cncc(-c3cnnn3C)n2)c1)c1cccc(C(F)(F)F)c1F [Example 1-48]; > 150 nM
CCc1cc(C(=O)N[C@H](C)c2cccc(C(F)(F)CO)c2F)nn(-c2cncc(-c3cnnn3C3CC3)c2)c1=O [Example 1-42]; < 50 nM
Cc1cc(C(=O)N[C@H](C)c2cccc(C(F)(F)F)c2F)cn(-c2cncc(-c3cnnn3C)c2)c1=O [Example 1-21]; < 50 nM

# get_value(readout= IC50, system= SOS1 (Homo sapiens, UniProt Q07889)) for CCn1nncc1-c1cncc(-n2nc(C(=O)N[C@H](C)c3cccc(C(F)(F)F)c3F)cc(CO)c2=O)c1 [Example 6-4] < 50 nM

Note, next up: C[C@@H](NC(=O)c1ccc(=O)n(-c2cncc(-c3cnnn3C3CN(S(C)(=O)=O)C3)c2)n1)c1cccc(C(F)(F)F)c1F [Example 20-12] < 50 nM

Thanks! And C[C@@H](NC(=O)c1ccc(=O)n(-c2cncc(-c3ccnn3C)c2)n1)c1cccc(C(F)(F)F)c1F [Example 1-17] ? 50 to 150 nM

* * *

Listed next: entries and their corresponding pIC50.
- Measured on: SOS1 (Homo sapiens, UniProt Q07889)
- Construct: HIS-SOS1cat (160 nM; Cytoskeleton, US); His (N); purchased Cytoskeleton
- Sequence (Q07889 564-1049 limits assumed): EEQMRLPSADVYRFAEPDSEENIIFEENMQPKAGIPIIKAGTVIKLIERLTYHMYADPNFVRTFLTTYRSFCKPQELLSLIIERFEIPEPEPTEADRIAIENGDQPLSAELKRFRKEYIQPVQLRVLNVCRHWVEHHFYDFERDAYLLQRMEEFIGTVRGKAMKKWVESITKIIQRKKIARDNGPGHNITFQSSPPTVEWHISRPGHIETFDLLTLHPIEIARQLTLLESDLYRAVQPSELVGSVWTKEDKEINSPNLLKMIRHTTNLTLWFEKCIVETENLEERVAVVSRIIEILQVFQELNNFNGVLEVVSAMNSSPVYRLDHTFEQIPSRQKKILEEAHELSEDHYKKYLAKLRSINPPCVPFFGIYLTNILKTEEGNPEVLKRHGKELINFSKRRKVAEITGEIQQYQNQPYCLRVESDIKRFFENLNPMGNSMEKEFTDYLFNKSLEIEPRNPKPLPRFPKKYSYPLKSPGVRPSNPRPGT
- Assay comment: SOS-catalyzed nucleotide exchange assay (HTRF, SOS1-mediated GTP loading of KRAS G12D)
- Type: biochemical
- Setup conditions: GST-KRAS G12D, HIS-SOS1cat, compound 128 pM to 10 µM; read-out: SOS-catalyzed nucleotide exchange assay
pIC50: −log10 of the molar value.

Some compounds with known pIC50 results, for comparison:
CC(C)n1nncc1-c1cncc(-n2nc(C(=O)N[C@H](C)c3cccc(C(F)(F)F)c3F)cc(CO)c2=O)c1 [Example 6-2]; > 7.30
C[C@@H](NC(=O)c1cc(F)c(=O)n(-c2cncc(-c3cnnn3C)c2)c1)c1cccc(C(F)(F)F)c1F [Example 1-30]; < 6.82
C[C@@H](NC(=O)c1ccc(=O)n(-c2cnc(F)c(-c3cnnn3C)c2)n1)c1cccc(C(F)F)c1F [Example 6-1]; 6.82 to 7.30
C[C@@H](NC(=O)c1ccc(=O)n(-c2cncc(-c3cnnn3CCO)c2)n1)c1cccc(C(F)(F)F)c1F [Example 11]; > 7.30
[2H]C([2H])([2H])n1nncc1-c1cncc(-n2nc(C(=O)N[C@H](C)c3cc(N)cc(C(F)(F)F)c3)ccc2=O)c1 [Example 1-58]; > 7.30

// pIC50 lookup, key: Cc1cc(C(=O)N[C@H](C)c2cccc(C(F)(F)F)c2F)nn(-c2cncc(-c3cnnn3C)c2)c1=O [Example 7-3] 6.82 to 7.30

// query: C[C@@H](NC(=O)c1ccc(=O)n(-c2cc(-c3cnnn3C3CC3)cnc2F)c1)c1cccc(C(F)(F)F)c1F [Example 1-67] > 7.30

What would you report for C[C@@H](NC(=O)c1cc(C2CCCCC2)c(=O)n(-c2cncc(-c3cnnn3C)c2)n1)c1cccc(C(F)(F)F)c1F [Example 1-65] ? < 6.82

Please answer likewise for C[C@@H](NC(=O)c1ccc(=O)n(-c2cnnc(-c3ccnn3C)c2)n1)c1cccc(C(F)(F)F)c1F [Example 1-19] < 6.82

Consider next the compound Cc1cc(C(=O)N[C@H](C)c2cc(N)cc(C(F)F)c2)nn(-c2cncc(-c3cnnn3C)c2)c1=O [Example 2-7] in the same way. > 7.30

The measured values listed here are drawn from patent EP4667464A1.
